B1: glmS ribozyme (parent)
chain: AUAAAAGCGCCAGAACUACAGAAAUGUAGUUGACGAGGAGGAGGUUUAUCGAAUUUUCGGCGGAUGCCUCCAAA

Variants of: B1
Protocol Text: KM; higher = weaker cofactor use; RNA array
Protocol Conditions: with glucosamine-6-phosphate
# KM >= 2000 µM gives 1.0, anything below gives 0.0

| Residue Change | Cat |
| --- | --- |
| U30G A64C | 1.0 |
| G40A C71U | 1.0 |
| U31G G51C | 0.0 |
| A53U C58G | 0.0 |
| A6C C71A | 0.0 |
| A20C | 0.0 |
| U46G C58G | 0.0 |
| G37C C67A | 1.0 |
| C11G A12G | 0.0 |
| A39G A52G | 1.0 |
| A12C G44A A53U | 1.0 |
| C11U U31C | 0.0 |
| G44A C67G | 0.0 |
| A39U C68G | 0.0 |
| G38A U49A C58U | 0.0 |
| A42G A64G | 0.0 |
| G37A C68U | 1.0 |
| G13A A64G | 1.0 |
| G41A U54G | 0.0 |
| A52U C67A | 0.0 |
| A15C A48U | 1.0 |
| G13A G37U | 0.0 |
| A12G C68U | 1.0 |
| A12G C71U | 1.0 |
| G41C U69C | 0.0 |
| A15C U65G | 1.0 |
| A12C C58U | 1.0 |
| C67U C68U | 0.0 |
| A14G A48U | 1.0 |
| U45C | 1.0 |
| G32A U65G | 1.0 |
| A15C U56C | 1.0 |
| A42G U49G | 1.0 |
| U47A C70A | 0.0 |
